# Lookup of reported relative viability keyed by entry
- System: NCI-H2023
- EXPERIMENTAL DETAILS: relative viability (nuclei count vs DMSO), 5 days (fraction); higher = more cells survive
- PROTOCOL CONDITIONS: first compound 4 µM
READOUT NAME: relative viability

COMPOUND	RECORDED RESULT
Clc1ccc(Nc2nnc(Cc3ccncc3)c3ccccc23)cc1 [Vatalanib] + Cc1nc(Nc2ncc(C(=O)Nc3c(C)cccc3Cl)s2)cc(N2CCN(CCO)CC2)n1 [Dasatinib] (partner 0.075 µM)	0.482
Clc1ccc(Nc2nnc(Cc3ccncc3)c3ccccc23)cc1 [Vatalanib] + COc1cc2c(Oc3ccc(NC(=O)C4(C(=O)Nc5ccc(F)cc5)CC4)cc3F)ccnc2cc1OCCCN1CCOCC1 [Foretinib] (partner 0.25 µM)	1.04
Clc1ccc(Nc2nnc(Cc3ccncc3)c3ccccc23)cc1 [Vatalanib] + Nc1nc2[nH]cc(CCc3ccc(C(=O)N[C@@H](CCC(=O)O)C(=O)O)cc3)c2c(=O)[nH]1 [Pemetrexed] (partner 0.2 µM)	0.202
C[C@@H]1CN(CC(=O)Nc2ccc3c(c2)Cc2cccc(-c4cc(=O)cc(N5CCOCC5)o4)c2S3)C[C@H](C)O1 + CC1(C)CCC(c2ccc(Cl)cc2)=C(CN2CCN(c3ccc(C(=O)NS(=O)(=O)c4ccc(N[C@H](CCN5CCOCC5)CSc5ccccc5)c(S(=O)(=O)C(F)(F)F)c4)cc3)CC2)C1 [Navitoclax] (partner 0.5 µM)	0.796

* * *

# Lookup of reported relative viability keyed by entry
- Test system: NCI-H2023
- EXPERIMENTAL DETAILS: relative viability (nuclei count vs DMSO), 5 days (fraction); higher = more cells survive
- PROTOCOL CONDITIONS: first compound 1.265 µM
READOUT NAME: relative viability

COMPOUND	RECORDED RESULT
COc1cc(N2CCC(C(N)=O)CC2)ccc1Nc1nc(N)c(Cl)c(Nc2ccccc2S(=O)(=O)C(C)C)n1 [HG-5-88-01] + C[C@]1(O)C[C@@H](c2nc(-c3ccc4ccc(-c5ccccc5)nc4c3)c3c(N)nccn32)C1 [Linsitinib] (partner 1 µM)	0.539
COc1cc(N2CCC(C(N)=O)CC2)ccc1Nc1nc(N)c(Cl)c(Nc2ccccc2S(=O)(=O)C(C)C)n1 [HG-5-88-01] + Cc1nc(Nc2ncc(C(=O)Nc3c(C)cccc3Cl)s2)cc(N2CCN(CCO)CC2)n1 [Dasatinib] (partner 0.075 µM)	0.196
Clc1ccc(Nc2nnc(Cc3ccncc3)c3ccccc23)cc1 [Vatalanib] + C[C@@H](Oc1cc(-c2cnn(C3CCNCC3)c2)cnc1N)c1c(Cl)ccc(F)c1Cl [Crizotinib] (partner 1 µM)	0.605
COc1cc(N2CCC(C(N)=O)CC2)ccc1Nc1nc(N)c(Cl)c(Nc2ccccc2S(=O)(=O)C(C)C)n1 [HG-5-88-01] + CC(=O)c1c(C)c2cnc(Nc3ccc(N4CCNCC4)cn3)nc2n(C2CCCC2)c1=O [Palbociclib] (partner 0.5 µM)	0.259

* * *

# Lookup of reported relative viability keyed by entry
- Test system: SW 900
- EXPERIMENTAL DETAILS: relative viability (nuclei count vs DMSO), 5 days (fraction); higher = more cells survive
- PROTOCOL CONDITIONS: first compound 0.1265 µM

COMPOUND	TARGET ENTITY	relative viability
COc1cc(N2CCC(C(N)=O)CC2)ccc1Nc1nc(N)c(Cl)c(Nc2ccccc2S(=O)(=O)C(C)C)n1 [HG-5-88-01] + CCNC(=O)c1noc(-c2cc(C(C)C)c(O)cc2O)c1-c1ccc(CN2CCOCC2)cc1 [Luminespib] (partner 0.01 µM)	SW 900	0.207
COc1cc(N2CCC(C(N)=O)CC2)ccc1Nc1nc(N)c(Cl)c(Nc2ccccc2S(=O)(=O)C(C)C)n1 [HG-5-88-01] + CC(=O)Nc1cccc(-n2c(=O)n(C3CC3)c(=O)c3c(Nc4ccc(I)cc4F)n(C)c(=O)c(C)c32)c1 [Trametinib] (partner 0.02 µM)	SW 900	0.943
Clc1ccc(Nc2nnc(Cc3ccncc3)c3ccccc23)cc1 [Vatalanib] + Nc1ncn([C@H]2C[C@H](O)[C@@H](CO)O2)c(=O)n1 [Decitabine] (partner 2 µM)	SW 900	0.457
C[C@@H]1CN(CC(=O)Nc2ccc3c(c2)Cc2cccc(-c4cc(=O)cc(N5CCOCC5)o4)c2S3)C[C@H](C)O1 + NC(=O)Nc1cc(-c2cccc(F)c2)sc1C(=O)N[C@H]1CCCNC1 [AZD7762] (partner 0.2 µM)	SW 900	0.669

* * *

- Tested on: NCI-H2023
- EXPERIMENTAL DETAILS: relative viability (nuclei count vs DMSO), 5 days (fraction); higher = more cells survive
- PROTOCOL CONDITIONS: first compound 0.4 µM
READOUT NAME: relative viability

COMPOUND	READOUT NAME	RECORDED RESULT
COc1cc(N2CCC(C(N)=O)CC2)ccc1Nc1nc(N)c(Cl)c(Nc2ccccc2S(=O)(=O)C(C)C)n1 [HG-5-88-01] + COc1cccc2cc(-c3nc([C@H]4CC[C@H](C(=O)O)CC4)n4ncnc(N)c34)[nH]c12 [OSI-027] (partner 0.5 µM)	relative viability	0.205
C[C@@H]1CN(CC(=O)Nc2ccc3c(c2)Cc2cccc(-c4cc(=O)cc(N5CCOCC5)o4)c2S3)C[C@H](C)O1 + CC1(C)CCC(c2ccc(Cl)cc2)=C(CN2CCN(c3ccc(C(=O)NS(=O)(=O)c4ccc(N[C@H](CCN5CCOCC5)CSc5ccccc5)c(S(=O)(=O)C(F)(F)F)c4)cc3)CC2)C1 [Navitoclax] (partner 0.5 µM)	relative viability	0.923
C[C@@H]1CN(CC(=O)Nc2ccc3c(c2)Cc2cccc(-c4cc(=O)cc(N5CCOCC5)o4)c2S3)C[C@H](C)O1 + COc1cccc2cc(-c3nc([C@H]4CC[C@H](C(=O)O)CC4)n4ncnc(N)c34)[nH]c12 [OSI-027] (partner 0.5 µM)	relative viability	0.306
Clc1ccc(Nc2nnc(Cc3ccncc3)c3ccccc23)cc1 [Vatalanib] + COc1cc2c(Oc3ccc(NC(=O)C4(C(=O)Nc5ccc(F)cc5)CC4)cc3F)ccnc2cc1OCCCN1CCOCC1 [Foretinib] (partner 0.25 µM)	relative viability	1.04
COc1cc(N2CCC(C(N)=O)CC2)ccc1Nc1nc(N)c(Cl)c(Nc2ccccc2S(=O)(=O)C(C)C)n1 [HG-5-88-01] + Cc1nc(NC(=O)N2CCC[C@H]2C(N)=O)sc1-c1ccnc(C(C)(C)C(F)(F)F)c1 [Alpelisib] (partner 2 µM)	relative viability	0.539
C[C@@H]1CN(CC(=O)Nc2ccc3c(c2)Cc2cccc(-c4cc(=O)cc(N5CCOCC5)o4)c2S3)C[C@H](C)O1 + O=C(CCCCCCC(=O)Nc1ccccc1)NO [Vorinostat] (partner 1 µM)	relative viability	0.581
Clc1ccc(Nc2nnc(Cc3ccncc3)c3ccccc23)cc1 [Vatalanib] + Cc1cc(Nc2cc(N3CCN(C)CC3)nc(Sc3ccc(NC(=O)C4CC4)cc3)n2)n[nH]1 [Tozasertib] (partner 0.1 µM)	relative viability	0.424
Clc1ccc(Nc2nnc(Cc3ccncc3)c3ccccc23)cc1 [Vatalanib] + Nc1nc2[nH]cc(CCc3ccc(C(=O)N[C@@H](CCC(=O)O)C(=O)O)cc3)c2c(=O)[nH]1 [Pemetrexed] (partner 0.2 µM)	relative viability	0.215
C[C@@H]1CN(CC(=O)Nc2ccc3c(c2)Cc2cccc(-c4cc(=O)cc(N5CCOCC5)o4)c2S3)C[C@H](C)O1 + C[C@]1(O)C[C@@H](c2nc(-c3ccc4ccc(-c5ccccc5)nc4c3)c3c(N)nccn32)C1 [Linsitinib] (partner 1 µM)	relative viability	0.433

* * *

- System: HCC-78
- EXPERIMENTAL DETAILS: relative viability (nuclei count vs DMSO), 5 days (fraction); higher = more cells survive
- PROTOCOL CONDITIONS: first compound 0.4 µM
Mark yes only when relative viability stays strictly below 0.4. Values equal to the cut-off are no.

MOLECULE	GROUP LABEL
C[C@@H]1CN(CC(=O)Nc2ccc3c(c2)Cc2cccc(-c4cc(=O)cc(N5CCOCC5)o4)c2S3)C[C@H](C)O1 + Cc1nc(Nc2ncc(C(=O)Nc3c(C)cccc3Cl)s2)cc(N2CCN(CCO)CC2)n1 [Dasatinib] (partner 0.075 µM)	yes
Clc1ccc(Nc2nnc(Cc3ccncc3)c3ccccc23)cc1 [Vatalanib] + CC(=O)Nc1cccc(-n2c(=O)n(C3CC3)c(=O)c3c(Nc4ccc(I)cc4F)n(C)c(=O)c(C)c32)c1 [Trametinib] (partner 0.02 µM)	no
C[C@@H]1CN(CC(=O)Nc2ccc3c(c2)Cc2cccc(-c4cc(=O)cc(N5CCOCC5)o4)c2S3)C[C@H](C)O1 + CS(=O)(=O)N1CCN(Cc2cc3nc(-c4cccc5[nH]ncc45)nc(N4CCOCC4)c3s2)CC1 [Pictilisib] (partner 1 µM)	yes
COc1cc(N2CCC(C(N)=O)CC2)ccc1Nc1nc(N)c(Cl)c(Nc2ccccc2S(=O)(=O)C(C)C)n1 [HG-5-88-01] + C[C@]1(O)C[C@@H](c2nc(-c3ccc4ccc(-c5ccccc5)nc4c3)c3c(N)nccn32)C1 [Linsitinib] (partner 1 µM)	yes
C[C@@H]1CN(CC(=O)Nc2ccc3c(c2)Cc2cccc(-c4cc(=O)cc(N5CCOCC5)o4)c2S3)C[C@H](C)O1 + CC1(C)CCC(c2ccc(Cl)cc2)=C(CN2CCN(c3ccc(C(=O)NS(=O)(=O)c4ccc(N[C@H](CCN5CCOCC5)CSc5ccccc5)c(S(=O)(=O)C(F)(F)F)c4)cc3)CC2)C1 [Navitoclax] (partner 0.5 µM)	no
COc1cc(N2CCC(C(N)=O)CC2)ccc1Nc1nc(N)c(Cl)c(Nc2ccccc2S(=O)(=O)C(C)C)n1 [HG-5-88-01] + CC1(C)CCC(c2ccc(Cl)cc2)=C(CN2CCN(c3ccc(C(=O)NS(=O)(=O)c4ccc(N[C@H](CCN5CCOCC5)CSc5ccccc5)c(S(=O)(=O)C(F)(F)F)c4)cc3)CC2)C1 [Navitoclax] (partner 0.5 µM)	yes
COc1cc(N2CCC(C(N)=O)CC2)ccc1Nc1nc(N)c(Cl)c(Nc2ccccc2S(=O)(=O)C(C)C)n1 [HG-5-88-01] + CS(=O)(=O)CCNCc1ccc(-c2ccc3ncnc(Nc4ccc(OCc5cccc(F)c5)c(Cl)c4)c3c2)o1 [Lapatinib] (partner 2 µM)	yes
COc1cc(N2CCC(C(N)=O)CC2)ccc1Nc1nc(N)c(Cl)c(Nc2ccccc2S(=O)(=O)C(C)C)n1 [HG-5-88-01] + Cc1nc(NC(=O)N2CCC[C@H]2C(N)=O)sc1-c1ccnc(C(C)(C)C(F)(F)F)c1 [Alpelisib] (partner 2 µM)	yes
Clc1ccc(Nc2nnc(Cc3ccncc3)c3ccccc23)cc1 [Vatalanib] + CS(=O)(=O)CCNCc1ccc(-c2ccc3ncnc(Nc4ccc(OCc5cccc(F)c5)c(Cl)c4)c3c2)o1 [Lapatinib] (partner 2 µM)	no
C[C@@H]1CN(CC(=O)Nc2ccc3c(c2)Cc2cccc(-c4cc(=O)cc(N5CCOCC5)o4)c2S3)C[C@H](C)O1 + Cc1cc(Nc2cc(N3CCN(C)CC3)nc(Sc3ccc(NC(=O)C4CC4)cc3)n2)n[nH]1 [Tozasertib] (partner 0.1 µM)	yes
COc1cc(N2CCC(C(N)=O)CC2)ccc1Nc1nc(N)c(Cl)c(Nc2ccccc2S(=O)(=O)C(C)C)n1 [HG-5-88-01] + CC(=O)c1c(C)c2cnc(Nc3ccc(N4CCNCC4)cn3)nc2n(C2CCCC2)c1=O [Palbociclib] (partner 0.5 µM)	no
C[C@@H]1CN(CC(=O)Nc2ccc3c(c2)Cc2cccc(-c4cc(=O)cc(N5CCOCC5)o4)c2S3)C[C@H](C)O1 + COc1cccc2cc(-c3nc([C@H]4CC[C@H](C(=O)O)CC4)n4ncnc(N)c34)[nH]c12 [OSI-027] (partner 0.5 µM)	yes
COc1cc(N2CCC(C(N)=O)CC2)ccc1Nc1nc(N)c(Cl)c(Nc2ccccc2S(=O)(=O)C(C)C)n1 [HG-5-88-01] + COc1cccc2cc(-c3nc([C@H]4CC[C@H](C(=O)O)CC4)n4ncnc(N)c34)[nH]c12 [OSI-027] (partner 0.5 µM)	yes

Where do the numbers come from? From the supplement of paper PMC10307832.
